Experiment: Ex vivo human plasma stability / release kinetic study of CBD prodrugs
Type: in vitro ADME
Settings: human blood plasma with citrate buffer, 37° C., 24 h
Entries and their prodrug left after 24 h
Just the number please, in %, no unit attached.

Below, 4 compounds whose answers are already recorded.
>>> reported("C=C(C)[C@@H]1CCC(C)=C[C@H]1c1c(O)cc(CCCCC)cc1OC(=O)CN1CCN(C)CC1 [Compound A7a]")
0.7
>>> reported("C=C(C)[C@@H]1CCC(C)=C[C@H]1c1c(O)cc(CCCCC)cc1OC(=O)CN1CCCC1 [Compound A10a]")
1.9
>>> reported("C=C(C)[C@@H]1CCC(C)=C[C@H]1c1c(O)cc(CCCCC)cc1OC(=O)CN1CCN(C2CC2)CC1 [Compound A5a]")
11.1
>>> reported("C=C(C)[C@@H]1CCC(C)=C[C@H]1c1c(O)cc(CCCCC)cc1OC(=O)CN1CCN(C(C)C)CC1 [Compound A6a]")
11.1

Param item = C=C(C)[C@@H]1CCC(C)=C[C@H]1c1c(O)cc(CCCCC)cc1OC(=O)CN1CCOCC1 [Compound A1a, O-(2-morpholinoacetyl) cannabidiol] ; retrieve measured prodrug left after 24 h.
5.5
